The values you see were collected from paper PMC9579956.

Experimental System: Mycobacterium thermoresistible (Mtr) LpqY (Mycolicibacterium thermoresistibile)
Type: binding
Details: compound 100 μM, LpqY 500 nM, 10% DMSO, duplicate
Would you kindly list Screen signal/noise ratio (MST S/N) for each of these compounds?
Just the number, please, no unit attached.

# return recorded Screen signal/noise ratio (MST S/N) for input CCOC(=O)NC(=O)c1ccsc1NC(=O)c1nc2ccccc2s1 [MMV090930, TCA1, reference compound]
29.5

Report Screen signal/noise ratio (MST S/N), nothing else, for this compound: CC(=O)Oc1ccccc1C(=O)Nc1ncc([N+](=O)[O-])s1 [MMV688991, Nitazoxanide, reference compound]
8.3

Provide only the value of recorded Screen signal/noise ratio (MST S/N) for C[C@H]1c2cccc(O)c2C(=O)C2=C(O)[C@]3(O)C(=O)C(C(N)=O)=C(O)[C@@H](N(C)C)[C@@H]3[C@@H](O)[C@@H]21 [MMV000011, Doxycycline, reference compound]
5.8

Look up Screen signal/noise ratio (MST S/N) of O=C(Nc1cccc(Cl)c1)c1cnc(N2CCN(c3ccncc3)CC2)c(Cl)c1 and report it.
5.2

Please list Screen signal/noise ratio (MST S/N) recorded for the compound O=C(NCCc1c[nH]c2ccccc12)c1cc2ccccc2oc1=O
6.2

Supply Screen signal/noise ratio (MST S/N) value. Item: COc1cc(NC(C)CCCN)c2ncccc2c1 (stereo not shown) [MMV000023, Primaquine, reference compound]
10.0

Given CNC(=O)C1Cc2c([nH]c3cc(Cl)ccc23)C2(CCN(CCc3ccccc3)CC2)N1 (stereo not shown) , respond with its Screen signal/noise ratio (MST S/N).
5.7

* * *

Experimental System: Mycobacterium thermoresistible (Mtr) LpqY (Mycolicibacterium thermoresistibile, UniProt G7CES0)
Sequence (G7CES0 29-471): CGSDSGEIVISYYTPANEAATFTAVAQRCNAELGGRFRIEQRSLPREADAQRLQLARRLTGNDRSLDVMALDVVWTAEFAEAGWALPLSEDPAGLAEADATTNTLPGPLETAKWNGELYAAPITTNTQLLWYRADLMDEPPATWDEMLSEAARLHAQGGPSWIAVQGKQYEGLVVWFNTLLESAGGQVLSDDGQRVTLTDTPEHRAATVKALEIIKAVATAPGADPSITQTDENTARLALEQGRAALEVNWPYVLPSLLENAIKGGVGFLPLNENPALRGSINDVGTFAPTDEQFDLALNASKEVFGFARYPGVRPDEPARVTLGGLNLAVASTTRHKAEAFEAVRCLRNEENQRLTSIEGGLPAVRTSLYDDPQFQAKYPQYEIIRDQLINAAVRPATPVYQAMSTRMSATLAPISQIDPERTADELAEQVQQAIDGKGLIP
Assay type: binding
Details: single dose MST screen against LpqY
Assignment: determine reported Pathogen Box screen signal/noise ratio for the given compounds.
Give the value as a plain number.

Specify measured Pathogen Box screen signal/noise ratio for CCCc1ccc(S(=O)(=O)Nc2ccc(CN3CCN(CC4CC4)CC3)cc2)cc1 [MMV688125] .
0.6

Identify measured Pathogen Box screen signal/noise ratio corresponding to CNC(=O)c1nn(C)c2c1C(C)(C)Cc1cnc(Nc3ccc(N4CCN(C)CC4)cc3)nc1-2 [MMV676602, Milciclib, reference compound]
9.5

Hello, please tell me recorded Pathogen Box screen signal/noise ratio for this one: CN1CCN(c2nccc3[nH]c(-c4cccc(F)c4)cc23)CC1 [MMV393144]
1.4

Recall and state the measured Pathogen Box screen signal/noise ratio for COc1ccc(N(CCc2cccc(C)n2)C(C)=O)cc1 [MMV675995] .
0.318

Dear colleague, please send me the reported Pathogen Box screen signal/noise ratio for O=C(NCCN1CCCC1)c1cc(NCCCCN2CCC(F)(F)CC2)nc2ccc(Cl)cc12 [MMV667494] when you can.
0.344

Determine from records and report Pathogen Box screen signal/noise ratio for CC(c1cc(Cl)cc(Cl)c1)N(C)c1ncc2c(N)nc(N)nc2n1 (stereo not drawn) [MMV689437]
0.187

Give the value of Pathogen Box screen signal/noise ratio reported for the following: CCCn1nnc(NC(=O)COc2ccc(C3CCCCC3)cc2)n1 [MMV676597]
0.551

Specify measured Pathogen Box screen signal/noise ratio for O=C(NCCN1CCCC1)c1cc(NCCN2CCOCC2)nc2ccc(Cl)cc12 [MMV634140] .
0.9

Please indicate Pathogen Box screen signal/noise ratio recorded for CCc1nc2ccc(Cl)cn2c1C(=O)NCc1ccc(N2CCC(c3ccc(OC(F)(F)F)cc3)CC2)cc1 [MMV687696]
1.0

Please give the documented Pathogen Box screen signal/noise ratio of COc1ccc(CN2CCOc3ccc(C(C)(O)CN(C)C)cc3C2)cc1C (stereo not drawn) [MMV008439]
0.222

Tell me its Pathogen Box screen signal/noise ratio given O[C@@H](c1cc(C(F)(F)F)nc2c(C(F)(F)F)cccc12)[C@H]1CCCCN1 [MMV000016] as the entry.
1.8

For the compound c1ccc2c(c1)CN(CC1CC1)CC1(CCN(Cc3c[nH]c4cnccc34)CC1)O2 [MMV023183] , give its reported Pathogen Box screen signal/noise ratio.
2.8

Supply Pathogen Box screen signal/noise ratio value. Item: C[C@@H]1[C@H](O)[C@@H](C)/C=C/C=C/C=C/C=C/C=C/C=C/C=C/[C@H](O[C@@H]2O[C@H](C)[C@@H](O)[C@H](N)[C@@H]2O)C[C@@H]2O[C@](O)(C[C@@H](O)C[C@@H](O)[C@H](O)CC[C@@H](O)C[C@@H](O)CC(=O)O[C@H]1C)C[C@H](O)[C@H]2C(=O)O [MMV689000]
1.1

Please give the documented Pathogen Box screen signal/noise ratio of Cc1cc2nc(NC(=O)C(C)(C)C)nc(Cl)c2n1Cc1ccc(Cl)cc1 [MMV688704]
1.2

Give Pathogen Box screen signal/noise ratio for Nc1ncnc2c1c(-c1cnc3ccccc3c1)nn2CC1CCNCC1 [MMV688411]
2.1

For the compound Oc1c(I)cc(I)c2cccnc12 [MMV002817] , report Pathogen Box screen signal/noise ratio.
0.152

Return the recorded Pathogen Box screen signal/noise ratio value; entry: CC(=O)Oc1ccccc1C(=O)Nc1ncc([N+](=O)[O-])s1 [MMV688991, Nitazoxanide, reference compound]
8.3

Using the record for COC(=O)c1c(NC(=O)c2c(F)c(F)c(F)c(F)c2F)sc2c1CCCCC2 [MMV461553] , state its measured Pathogen Box screen signal/noise ratio.
2.6

Report measured Pathogen Box screen signal/noise ratio; entry is C[C@H]1c2cccc(O)c2C(=O)C2=C(O)[C@]3(O)C(=O)C(C(N)=O)=C(O)[C@@H](N(C)C)[C@@H]3[C@@H](O)[C@@H]21 [MMV000011, Doxycycline, reference compound]
5.8

Read off the recorded Pathogen Box screen signal/noise ratio for CNC(=O)C1Cc2c([nH]c3cc(Cl)ccc23)C2(CCN(CCc3ccccc3)CC2)N1 (stereo not drawn) [MMV031011]
5.7

Supply reported Pathogen Box screen signal/noise ratio belonging to this compound: CC(C)(C)n1nc(Cc2ccc(F)c(Cl)c2)c2c(N)ncnc21 [MMV688852]
0.7

Give recorded Pathogen Box screen signal/noise ratio. O=C(NCc1ccoc1)N1CCN(Cc2ccc3c(c2)OCO3)CC1 [MMV688553]
0.8

Tell me measured Pathogen Box screen signal/noise ratio for Cc1ccc(Oc2ccc(NC(=O)CNc3ccccc3N3CCCC3=O)cc2)cc1 [MMV020512] please.
3.4

Hello, please tell me recorded Pathogen Box screen signal/noise ratio for this one: CC1COC(Cn2cncn2)(c2ccc(Oc3ccc(Cl)cc3)cc2Cl)O1 (stereo not drawn) [MMV688943]
0.75

Name the recorded Pathogen Box screen signal/noise ratio of the item O=C(CCC1CCCCC1)Nc1cccc(-c2nnc(-c3ccco3)o2)c1 [MMV676589] in your answer.
0.6

Determine its reported Pathogen Box screen signal/noise ratio: Nc1ncnc2c1ncn2[C@@H]1O[C@H](COS(=O)(=O)NC(=O)c2ccccc2O)[C@@H](O)[C@H]1O [MMV687700]
1.1

Given the compound CC(C)C(NC(=O)Cc1cccc2ccccc12)C(=O)Nc1cccc(C#N)c1 (stereo not drawn) [MMV020591] , write its reported Pathogen Box screen signal/noise ratio.
0.25

State its Pathogen Box screen signal/noise ratio for this compound: CN1CCC(NCc2cccc(-c3ccc(S(=O)(=O)NCc4ccccc4)cc3)c2)CC1 [MMV022029]
-0.0167

For the compound Cc1ccc2c(c1C)NC(=O)C21NN=C(c2ccccc2)S1 (stereo not drawn) [MMV019189] , give its reported Pathogen Box screen signal/noise ratio.
1.4

Find the measured Pathogen Box screen signal/noise ratio of CC(C)(C)n1nc(-c2ccccc2)c2c(N)ncnc21 [MMV688548] and report it.
1.0

Output measured Pathogen Box screen signal/noise ratio for this item: CN1CCN(c2nccc3nc(-c4ccc(F)c(F)c4)[nH]c23)CC1 [MMV676260]
0.635

Dear colleague, please send me the reported Pathogen Box screen signal/noise ratio for COc1ccc(C2=NN(C3CCCCCC3)C(=O)C2(C)C)cc1OCCCCOc1ccc(-c2nn[nH]n2)cc1 [MMV690028] when you can.
2.5

Recall and state the measured Pathogen Box screen signal/noise ratio for Nc1ccc(C(=O)Nc2ccc(-c3nc4ccccc4o3)cc2)cc1 [MMV007920] .
0.9

* * *

Experimental System: Mycobacterium thermoresistible (Mtr) LpqY (Mycolicibacterium thermoresistibile, UniProt G7CES0)
Assay type: binding
Details: single dose MST screen against LpqY
Measured Property: Pathogen Box screen signal/noise ratio
Lab note: record the figure alone, no unit after it.

Specify measured Pathogen Box screen signal/noise ratio for CC(C)N=c1cc2n(-c3ccc(Cl)cc3)c3ccccc3nc-2cc1Nc1ccc(Cl)cc1 .
0.6

Indicate its recorded Pathogen Box screen signal/noise ratio; the compound in question is CS(=O)(=O)N1CCC(CCn2nc(Cc3cccc4ccccc34)c3c(N)ncnc32)CC1
0.75

Assign Pathogen Box screen signal/noise ratio to the following record: NCCN(C(=O)c1ccc(Cl)cc1Cl)c1ccc(OCc2ccc(Cl)cc2)cc1
1.7

Complete the entry with Pathogen Box screen signal/noise ratio for Cc1cccc(-c2nc(Nc3ccncn3)c3sccc3n2)n1
1.3

Given Cc1cccc(C(=O)Nc2ccnc(N(C)C3CCN(CC(C)C)CC3)c2)c1 , respond with its Pathogen Box screen signal/noise ratio.
-0.0167

Tell me Pathogen Box screen signal/noise ratio reported for CCN(CC)S(=O)(=O)c1ccc(Cl)c(C(=O)Nc2ccc3nc(C)sc3c2)c1
1.3

Please report Pathogen Box screen signal/noise ratio for the following compound: Cc1cc(OCC(=O)NCc2ccccc2)c2cc(Br)ccc2n1
0.856

For the compound COc1ccc2nc(C)cc(OCC(=O)Nc3ccccc3OC)c2c1 , report Pathogen Box screen signal/noise ratio.
1.7

// Input: CCc1ccccc1-n1c(C)cn2c3c(=O)n(C(C(=O)OC)C(C)C)c(=O)n(C)c3nc12 (stereo not drawn) . Output its Pathogen Box screen signal/noise ratio only.
0.222

Please look at this compound and report its Pathogen Box screen signal/noise ratio: O=C(C1CCCCC1)N1CC(=O)N2CCc3ccccc3C2C1 (stereo not drawn)
0.167

Provide measured Pathogen Box screen signal/noise ratio value, entry: Cc1nc(-c2ccccn2)nc(N2CCC(Cc3ccccc3)C2)c1Cl (stereo not drawn)
0.2

Tell me Pathogen Box screen signal/noise ratio reported for CC(C(=O)Nc1ccc2oc(-c3ccncc3)nc2c1)c1ccccc1 (stereo not drawn)
1.6

Provide one value: measured Pathogen Box screen signal/noise ratio of Cc1cc(C)n(-c2ccc(NC(=O)C3CCN(Cc4cnc(C)s4)CC3)cc2)n1
1.4

Give me measured Pathogen Box screen signal/noise ratio, please, for this compound: Nc1ncc(-c2cn[nH]c2)cc1-c1nc2cc(Cl)cnc2[nH]1
1.1

Supply recorded Pathogen Box screen signal/noise ratio for O=C1COCc2ccc(Br)cc2N1Cc1ccc(C(F)(F)F)cc1 here.
0.9

Recall and state the measured Pathogen Box screen signal/noise ratio for Cc1[nH]c2cc(F)cc(F)c2c(=O)c1-c1ccc(Oc2ccc(OC(F)(F)F)cc2)cc1 .
0.545

Dear colleague, please send me the reported Pathogen Box screen signal/noise ratio for COc1ccc(-c2nnc3ccc(-c4cccc(C(C)C)c4)cn23)cc1OC when you can.
1.1

Tell me measured Pathogen Box screen signal/noise ratio for Cc1ccc(S(=O)(=O)Nc2ccc(CN3CCN(C(=O)c4cccc(C#N)c4)CC3)cc2)cc1 please.
-0.5
